The reported numbers originate from patent US20240400614A1.

Molecular target: matriptase (Homo sapiens, UniProt Q9Y5Y6)
Construct: purchased R&D Systems 3946-SEB
Sequence (Q9Y5Y6 615-855 limits assumed): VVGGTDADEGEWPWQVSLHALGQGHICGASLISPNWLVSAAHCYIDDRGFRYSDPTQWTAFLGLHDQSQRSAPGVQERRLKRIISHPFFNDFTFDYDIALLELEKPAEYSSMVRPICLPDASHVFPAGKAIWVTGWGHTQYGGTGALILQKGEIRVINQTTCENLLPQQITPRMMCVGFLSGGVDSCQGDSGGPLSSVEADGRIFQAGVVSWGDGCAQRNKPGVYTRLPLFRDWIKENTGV
Experiment: FRET peptide cleavage efficiency with matriptase
Type: biochemical
Conditions: t = 15 min; 200 uM linker, 1 ug/ml protease, 37° C., buffer B pH 9.0
Square brackets hold non-standard residues; d marks the D form. Ends that are not written are not given here. Tyr(3-NO2) = N[C@@H](Cc1ccc(O)c([N+](=O)[O-])c1)C(=O)O; 2Abz = Nc1ccccc1C(=O)O
Parameter: % cleavage Matriptase t = 15 min
Form entry: enter the amount, then its unit.

Example entries and their recorded answers appear below.
- RGRRVANYFGKL ([2Abz]RGRRVANYFGKL[Tyr(3-NO2)]-NH2) [LNK055]: 67%
- ISQYSSAT ([2Abz]ISQYSSAT[Tyr(3-NO2)]-NH2) [LNK070]: 0%
- SSLQSSPG ([2Abz]SSLQSSPG[Tyr(3-NO2)]-NH2) [LNK066]: 0%
- SSRVFRKPANLAG ([2Abz]SSRVFRKPANLAG[Tyr(3-NO2)]-NH2) [LNK019]: 90%
- RSSYYSL ([2Abz]RSSYYSL[Tyr(3-NO2)]-NH2) [LNK076]: 0%
- KLYSSKQ ([2Abz]KLYSSKQ[Tyr(3-NO2)]-NH2) [LNK071]: 0%
- RGRRHSSKLQ ([2Abz]RGRRHSSKLQ[Tyr(3-NO2)]-NH2) [LNK052]: 60%
- RQRRSVVGG ([2Abz]RQRRSVVGG[Tyr(3-NO2)]-NH2) [LNK029]: 96%

*Q* Output measured % cleavage Matriptase t = 15 min for this item: SGRVLPLGMRA ([2Abz]SGRVLPLGMRA[Tyr(3-NO2)]-NH2) [LNK023]
*A* 38%
